Origin of measurements: ChEMBL document CHEMBL4406899

# measurement_description: Selectivity index, ratio of CC50 for human H9 cells to EC50 for antiviral activity against HIV-1
# Format: toxicity
# details: read-out: Ratio CC50/EC50
// thresholds for selectivity ratio classes: 1: < 7; 2: ≥ 7 and < 20; 3: ≥ 20

INSERT INTO results (line_notation, class_name) VALUES
  ('Nc1ccccc1NC(=O)c1c(N)cccc1Sc1ccc([N+](=O)[O-])cc1', 3),
  ('COc1ccccc1NC(=O)c1c(N)cccc1S(=O)(=O)c1ccc(C(F)(F)F)cc1', 3);

Below: the item to evaluate.
query: Could you place Nc1cccc(Sc2ccc([N+](=O)[O-])cc2)c1C(=O)Nc1ccccc1I in its proper category? Many thanks.
result: 1

---

# measurement_description: Selectivity index, ratio of CC50 for human H9 cells to EC50 for antiviral activity against HIV-1
# Type: toxicity
# details: read-out: Ratio CC50/EC50
measurement_label: selectivity ratio

INSERT INTO results (line_notation, measurement_label, reading) VALUES
  ('Nc1cccc(Sc2ccc([N+](=O)[O-])cc2)c1C(=O)Nc1ccccc1O', 'selectivity ratio', 15.6),
  ('COc1ccccc1NC(=O)c1c(N)cccc1Sc1ccc(F)cc1', 'selectivity ratio', 15.6),
  ('COc1ccccc1NC(=O)c1c(N)cccc1Sc1ccc([N+](=O)[O-])cc1', 'selectivity ratio', 263);

Now look at this one.
query: Consider the compound CS(=O)(=O)Oc1ccccc1NC(=O)c1c(N)cccc1Sc1ccc([N+](=O)[O-])cc1 and give its measured selectivity ratio.
result: 5.28

---

# measurement_description: Cytotoxicity against human H9 cells assessed as reduction in cell viability incubated for 7 days by MTT assay
# Assay type: cell-based
measurement_label: CC50 at 168 h (µM)
Entry rule: numbers only, all in µM.

Below are worked cases with known answers.
INSERT INTO measurements (line_notation, reading) VALUES
  ('Nc1cccc(Sc2ccc([N+](=O)[O-])cc2)c1C(=O)Nc1ccccc1O', 153),
  ('Nc1cccc(Sc2ccc([N+](=O)[O-])cc2)c1C(=O)Nc1ccccc1I', 407),
  ('COc1ccccc1NC(=O)c1c(N)cccc1Sc1cc(C)cc(C)c1', 181);

Now look at this one.
query: Consider the compound COc1ccccc1NC(=O)c1c(N)cccc1Sc1ccc([N+](=O)[O-])cc1 and give its measured CC50 at 168 h.
result: 462

---

# measurement_description: Cytotoxicity against human H9 cells assessed as reduction in cell viability incubated for 7 days by MTT assay
# Type: cell-based
measurement_label: CC50 at 168 h (µM)
Entry rule: numbers only, all in µM.

Below are worked cases with known answers.
INSERT INTO results (line_notation, readout_units, reading) VALUES
  ('CS(=O)(=O)Oc1ccccc1NC(=O)c1c(N)cccc1Sc1ccc([N+](=O)[O-])cc1', 'µM', 422),
  ('COc1ccccc1NC(=O)c1c(N)cccc1Sc1ccncc1', 'µM', 569),
  ('COc1ncccc1NC(=O)c1c(N)cccc1Sc1ccc([N+](=O)[O-])cc1', 'µM', 182),
  ('Nc1cccc(S(=O)(=O)c2ccc([N+](=O)[O-])cc2)c1C(=O)Nc1ccccc1I', 'µM', 382),
  ('COc1ccc(NC(=O)c2c(N)cccc2Sc2ccc([N+](=O)[O-])cc2)c(OC)c1', 'µM', 82.5);

query: Consider the molecule Nc1ccccc1NC(=O)c1c(N)cccc1Sc1ccc([N+](=O)[O-])cc1 and give its measured CC50 at 168 h.
result: 427

query: Follow-up entry: COc1ccccc1NC(=O)c1c(N)cccc1S(=O)(=O)c1ccc(C(F)(F)F)cc1
result: 444

query: Follow-up entry: COc1ccccc1NC(=O)c1c(N)cccc1Sc1ccc(F)cc1
result: 543

query: Follow-up entry: COc1ccccc1NC(=O)c1c(N)cccc1S(=O)(=O)c1ccc(F)cc1
result: 499

query: Follow-up entry: COc1ccccc1NC(=O)c1c(N)cccc1Sc1ccc(C(F)(F)F)cc1
result: 352

---

# measurement_description: Selectivity index, ratio of CC50 for human H9 cells to EC50 for antiviral activity against HIV-1
# Type: toxicity
# details: read-out: Ratio CC50/EC50
The entries below come with measured selectivity ratio values attached.

INSERT INTO measurements (line_notation, reading) VALUES
  ('COc1ccccc1NC(=O)c1c(N)cccc1Sc1ccncc1', 3.23);

query: Consider the compound COc1ccccc1NC(=O)c1c(N)cccc1Sc1ccc(C(F)(F)F)cc1 and give its measured selectivity ratio.
result: 14.6

query: Follow-up entry: COc1ncccc1NC(=O)c1c(N)cccc1Sc1ccc([N+](=O)[O-])cc1
result: 7.03

query: Follow-up entry: COc1ccccc1NC(=O)c1c(N)cccc1S(=O)(=O)c1ccc(F)cc1
result: 53.7

query: Follow-up entry: Nc1cccc(S(=O)(=O)c2ccc([N+](=O)[O-])cc2)c1C(=O)Nc1ccccc1I
result: 12.4

query: Follow-up entry: COc1ccc(NC(=O)c2c(N)cccc2Sc2ccc([N+](=O)[O-])cc2)c(OC)c1
result: 4.06

query: Follow-up entry: COc1ccccc1NC(=O)c1c(N)cccc1Sc1cc(C)cc(C)c1
result: 18.9
